- tested-target: ErbB-4 receptor-Ig fusion (human) (UniProt Q15303)
- assay-procedure: displacement of 125I-HRG-β1 177-244 from ErbB-4-Ig
observation-type: EC50
Mention the unit after the number when you answer.

{"binder": "Trx-HRG-β1 146-244 F216A fusion (ligand) DDDDKAYVSSESPIRISVSTEGANTSSSTSTSTTGTSHLVKCAEKEKTFCVNGGECFMVKDLSNPSRYLCKCPNEATGDRCQNYVMASFYKHLGIEFMEAEELY", "EC50": "173 nM"}

Query Trx-HRG-β1 146-244 E195A fusion (ligand) DDDDKAYVSSESPIRISVSTEGANTSSSTSTSTTGTSHLVKCAEKEKTFCVNGGACFMVKDLSNPSRYLCKCPNEFTGDRCQNYVMASFYKHLGIEFMEAEELY yields EC50 of 13.2 nM
